systemTested: cynomolgus IL-1RAcP on cells (cynomolgus, UniProt A0A2K5X5J5 21-570)
protocolSummary: cell-based or functional assay
measuredAttribute: IC50, IL-8 release, CyDFa stimulated with cynomolgus IL-1β (nM)
Reply numerically in nM, unit not repeated.

Answered cases to consult:
Query: Reported IC50, IL-8 release, CyDFa stimulated with cynomolgus IL-1β, binder R001032 (1A05) (antibody, human IgG1, kappa, V domains shown, Rabbit variable domains of prior art 1A05 on human IgG1 kappa constant regions with AEASS; also called P013.S.01.B.A05) VH: LEQSGGGAEGGLVKPGGSLELCCKASGFSLSTSYWRCWVRQAPGKGLEWIGCIYAGSGDVTYYANWVNGRFTLSRDIDQSTGCLQLNSLTAADTAMYYCASGVGFGYFNLWGQGTLVTVSS VL: ALVMTQTPSPVSAAVGGTVTINCQASEDIYSNLAWFQQKPGQPPKLLIYDASTLASGVPSRFSGSGSGTEFTLTISGLQSDDAATYYCLGVYTHISADNAFGGGTEVVVKR : ____
Response: 0.48

Query: Reported IC50, IL-8 release, CyDFa stimulated with cynomolgus IL-1β, binder h11C5 YKD (antibody, human IgG1, kappa, V domains shown, Variable domains of h11C5 YKD on the same modified IgG1 kappa constant regions (AEASS); Printed as 'h1105' in much of the text; also called h1105) VH: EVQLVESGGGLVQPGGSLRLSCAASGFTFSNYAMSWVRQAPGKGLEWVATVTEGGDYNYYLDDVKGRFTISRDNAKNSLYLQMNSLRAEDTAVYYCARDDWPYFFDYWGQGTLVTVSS VL: DIQMTQSPSSLSASVGDRVTITCRASENIYSNLAWYQQKPGKSPKLLVYGYKNLADVPSRFSGSGSGTDYTLTISSLQPEDFATYYCQHFKTTPRTFGGGTKVEIKR : ____
Response: 1

// next entry
Query: Reported IC50, IL-8 release, CyDFa stimulated with cynomolgus IL-1β, binder R001031 (CAN04) (antibody, human IgG1, kappa, V domains shown, Variable domains of prior art CAN04 on human IgG1 kappa constant regions with AEASS) VH: QVQLVQSGAEVKKPGSSVKVSCKASGYAFSSSWMNWVRQAPGQGLEWMGRIYPGDGNTHYAQKFQGRVTLTADKSTSTAYMELSSLRSEDTAVYYCGEGYLDPMDYWGQGTLVTVSS VL: DIQMTQSPSSLSASVGDRVTITCSASQGINNYLNWYQQKPGKAPKLLIHYTSGLHAGVPSRFSGSGSGTDYTLTISSLQPEDVATYYCQQYSILPWTFGGGTKVEIKR : ____
Response: 1
